- ASSAY_OVERVIEW: chemical genetic growth profiling, strain panel (AID 1159580);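 note: tested at 20 µM; growth read once vehicle control cultures reached saturation at 30 °C; lower values mean less growth of the strain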
- CONDITIONS_USED: S. cerevisiae deletion strains, growth OD, locus YOR144C, strain elg1, hits give low values
Among all 5,500 compounds or so, about 2,000 (36%) were called active. Inconclusive results (about 18%) are left out. The list shows a part of the results.
Define the label as fulfilled when normalized growth is strictly less than 1 and as not fulfilled in all remaining cases.

Is it true that normalized growth reported for COc1ccc2c(c1)OC/C(=C\c1ccc(OC)c(O)c1)C2=O is less than 1?
fulfilled

Does this compound meet the criterion normalized growth < 1? C=C1CCC2[C@](C)(CO)[C@H](O)CC[C@@]2(C)[C@@H]1C/C=C1/C(=O)OC[C@H]1O (some centres undefined)
not fulfilled
